- Target Or Test System: MAO-B (Rattus norvegicus, UniProt P19643)
- Construct: mitochondria prepared from the liver of rats; from tissue; host or cells: rat liver mitochondria
- Sequence (P19643 1-520): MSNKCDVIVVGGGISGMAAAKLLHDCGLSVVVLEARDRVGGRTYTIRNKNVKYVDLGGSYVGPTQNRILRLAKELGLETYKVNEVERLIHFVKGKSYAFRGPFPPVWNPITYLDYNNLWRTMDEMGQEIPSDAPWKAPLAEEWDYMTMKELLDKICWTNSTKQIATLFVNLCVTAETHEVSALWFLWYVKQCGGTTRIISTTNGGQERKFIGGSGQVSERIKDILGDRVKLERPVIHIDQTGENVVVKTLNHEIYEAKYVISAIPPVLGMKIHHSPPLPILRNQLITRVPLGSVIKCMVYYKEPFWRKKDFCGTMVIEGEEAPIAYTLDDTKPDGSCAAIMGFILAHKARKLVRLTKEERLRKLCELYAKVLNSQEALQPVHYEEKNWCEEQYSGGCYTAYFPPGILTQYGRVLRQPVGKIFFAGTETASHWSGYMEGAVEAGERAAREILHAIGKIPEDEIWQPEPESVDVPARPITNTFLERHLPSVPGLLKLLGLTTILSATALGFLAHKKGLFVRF
- Test: In vitro inhibition of monoamine oxidase B (oxygen electrode, rat liver mitochondria, substrate benzylamine)
- Format: biochemical
- Condition Label: rat liver mitochondria, 37° C., preincubated, substrate benzylamine (BA); read-out: IC50 MAO-B
Property Label: IC50 (µM)
Could you give me the number in µM? Just the number is fine.

State the recorded IC50 for this entry: CCc1nc(-c2ccc(OCCCN(CC)CC)cc2)no1 [Example 8]
25

State the recorded IC50 for this entry: CCc1nc(-c2ccc(OCCCN3CCOCC3)cc2)no1 [Example 11]
100

Entry CCCN(CCC)CCCOc1ccc(-c2noc(C)n2)cc1 [Example 25] : reported IC50 = ?
1

Form field: reported IC50 of CCc1nc(-c2ccc(OCCCN3CCCCC3)cc2)no1 [Example 12]
100

IC50 lookup needed for CCCOc1ccc(-c2noc(C)n2)cc1 [Example 28] , thanks.
25

Returns the measured IC50 for the input molecule. Input: CCc1nc(-c2ccc(OCCCn3ccnc3)cc2)no1 [Example 1]
0.3

----------
- Target Or Test System: MAO-B (Rattus norvegicus, UniProt P19643)
- Construct: mitochondria prepared from the liver of rats; from tissue; host or cells: rat liver mitochondria
- Test: In vitro inhibition of monoamine oxidase B (oxygen electrode, rat liver mitochondria, substrate benzylamine)
- Assay type: biochemical
- Condition Label: ratio of IC50 values MAO-A/MAO-B
Property Label: MAO-A/MAO-B
Provide a numeric answer; units are not to be included.

Return reported MAO-A/MAO-B; argument: CCc1nc(-c2ccc(OCc3ccccc3)cc2)no1
13

Look up MAO-A/MAO-B for this compound: CNc1nc(-c2ccc(OCc3ccccc3)cc2)no1
14

Using the record for CCc1nc(-c2ccc(OCCCn3ccnc3C)cc2)no1 , report its MAO-A/MAO-B.
1

Quick check: MAO-A/MAO-B of CCCOc1ccc(-c2noc(C)n2)cc1 ?
0.7

Report MAO-A/MAO-B for CCc1nc(-c2ccc(OCCCN3CCOCC3)cc2)no1 please.
2

Query (compound): CCCc1nc(-c2ccc(OCCCn3ccnc3)cc2)no1 ; field requested: MAO-A/MAO-B
200

Can you look up the measured MAO-A/MAO-B of CCc1nc(-c2ccc(OCCCn3ccnc3)cc2)no1 for me?
670

What value of MAO-A/MAO-B has been reported for the following compound? CCc1nc(-c2ccc(OCCCn3cnc4ccccc43)cc2)no1
0.9

Need MAO-A/MAO-B of c1cn(CCCOc2ccc(-c3noc(C4CC4)n3)cc2)cn1 , thanks.
50

Endpoint output: MAO-A/MAO-B of CCc1nc(-c2ccc(OCCCN3C(=O)c4ccccc4C3=O)cc2)no1 . Value?
1

Dear colleague, I am looking for the recorded MAO-A/MAO-B of the following compound: CCc1nc(-c2ccc(OCCCc3cccnc3)cc2)no1
5

Which value of MAO-A/MAO-B has been reported for CCc1nc(-c2ccc(OCCCN(CC)CC)cc2)no1 in the records?
4

# MAO-A/MAO-B lookup, item CCc1nc(-c2ccc(OCCCc3ccccc3)cc2)no1
1

Quick one: MAO-A/MAO-B of Cc1nc(-c2ccc(OCCCc3ccccc3)cc2)no1 ?
5

Record request: MAO-A/MAO-B value, item CNc1nc(-c2ccc(OCCCn3ccnc3)cc2)no1
92

Record request: MAO-A/MAO-B value, item Cc1nc(-c2ccc(OCc3cccnc3)cc2)no1
3.3

Provenance of the data: patent US5356916A
